// data source = PubChem BioAssay (EPA / NIEHS)

Read-out: flavin-containing dimethylaniline monooxygenases 3 (FMO3), FMO3 (gene 2328)
Run description: LTEA_HepaRG_FMO3: Life Technologies and Expression Analysis (LTEA) Assay for flavin-containing dimethylaniline monooxygenases 3 (FMO3) using HepaRG (AID 2283453)
Study conditions: mRNA level, 48 h; actives raise or lower the signal
Activity calls are given as the source filed them. Rule for the calls: active = hit-call score of the fitted dose curve at least 0.9, where 1 is the maximum; inactive = score below 0.9.
Outcomes: Y = active, N = inactive

{"columns": ["Compound", "Group label"],
 "data": [
  ["CCCOC(=O)c1ccc(C(=O)OCCC)nc1", "N"],
  ["CCCCCCC(C)OC(=O)COc1nc(F)c(Cl)c(N)c1Cl (stereo not given)", "N"],
  ["CSC(=O)c1cccc2nnsc12", "N"],
  ["CCOC(=O)c1ccc(O)cc1", "N"],
  ["COCCO", "N"],
  ["CCOC(=O)COc1cc(-n2ncc(C(F)(F)F)c(C)c2=O)c(F)cc1Cl", "N"],
  ["CCCCOCCOCCOCc1cc2c(cc1CCC)OCO2", "N"],
  ["C=CCOC(Cn1ccnc1)c1ccc(Cl)cc1Cl (stereo not given)", "Y"],
  ["CCCCOC(=O)C(C)Oc1ccc(Oc2ccc(C(F)(F)F)cn2)cc1 (stereo not given)", "N"],
  ["C#C[C@]1(O)CC[C@H]2[C@@H]3CCC4=CC(=O)CC[C@@H]4[C@H]3CC[C@@]21CC", "N"],
  ["Oc1ccc(C(c2ccc(O)cc2)C(Cl)(Cl)Cl)cc1", "Y"],
  ["CCCOC(=O)NCCCN(C)C", "N"],
  ["Cc1nn(C)c(Oc2ccccc2)c1C=NOCc1ccc(C(=O)OC(C)(C)C)cc1", "Y"],
  ["CCCCC(CC)CN1C(=O)C2C3C=CC(C3)C2C1=O (stereo not given)", "Y"],
  ["CCN(CC)C(=O)c1cccc(C)c1", "N"],
  ["N#CSCSc1nc2ccccc2s1", "N"],
  ["CCSC(=O)N(CC(C)C)CC(C)C", "N"],
  ["CCCCOC(=O)[C@@H](C)Oc1ccc(Oc2ccc(C(F)(F)F)cn2)cc1", "N"],
  ["C[C@]12C[C@H](O)[C@H]3[C@@H](CCC4=CC(=O)CC[C@@]43C)[C@@H]1CC[C@@H]2C(=O)CO", "N"],
  ["O=C(Nc1ccc([N+](=O)[O-])cc1Cl)c1cc(Cl)ccc1O", "Y"],
  ["CCN(Cc1c(F)cccc1Cl)c1c([N+](=O)[O-])cc(C(F)(F)F)cc1[N+](=O)[O-]", "Y"],
  ["COC(=O)c1ccc(I)cc1S(=O)(=O)NC(=O)Nc1nc(C)nc(OC)n1", "N"],
  ["C[C@]12CC[C@@H]3c4ccc(O)cc4C[C@@H](CCCCCCCCCS(=O)CCCC(F)(F)C(F)(F)F)[C@H]3[C@@H]1CC[C@@H]2O (stereo not given in full)", "Y"],
  ["CC(C)(C)[C@@H](O)[C@@H](Cc1ccc(Cl)cc1)n1cncn1", "N"],
  ["N[C@@H](Cc1cc(I)c(Oc2ccc(O)c(I)c2)c(I)c1)C(=O)O", "Y"],
  ["CCNc1nc(N)nc(Cl)n1", "N"],
  ["CC(C)(c1ccc(O)cc1)c1ccc(O)cc1", "N"],
  ["CC1(C)C(C=C(Cl)Cl)C1C(=O)OCc1cccc(Oc2ccccc2)c1 (stereo not given)", "N"],
  ["CCOC(=O)C(C)Oc1ccc(Oc2nc3ccc(Cl)cc3o2)cc1 (stereo not given)", "N"],
  ["O=C(c1ccc(O)cc1O)c1ccc(O)cc1O", "N"]
]}
